meta.source: PubChem BioAssay AID651691

- target.or.system: BoNT/ALC
- experimental.details: confirmation, biochemical, FRET, cleavage-site specific substrates (AID 651691)
- experimental.setup: FRET protease cleavage assay, BoNT/A LC or LF
Activity calls are given as the source filed them. No rule for the calls is given here.
Outcome (select one): TRUE = active, FALSE = inactive

compound: O=C(Nc1ccc2nc(-c3cccs3)c(-c3cccs3)nc2c1)N1CCCCC1
class: TRUE
--
compound: COc1ccccc1N1N=C(c2ccc([N+](=O)[O-])cc2)CC1c1ccccc1 (stereo unspecified)
class: TRUE
--
compound: O=[N+]([O-])c1ccc(C2=NN(c3ccccc3)C(c3ccco3)C2)cc1 (stereo unspecified)
class: FALSE
--
compound: O=[N+]([O-])c1ccc(N2N=C(c3ccccc3)CC2c2ccccc2)cc1 (stereo unspecified)
class: TRUE
--
compound: Cc1ccc(-c2cn3nc(-c4ccccc4)c(-c4ccccc4)nc3n2)cc1
class: TRUE
--
compound: O=C(Nc1ccc2nc(-c3cccs3)c(-c3cccs3)nc2c1)NC1CC1
class: FALSE

Then there is this compound:
# lookup: test call for O=C(Nc1ccc2nc(-c3cccs3)c(-c3cccs3)nc2c1)N1CCOCC1
FALSE
